Values from paper PMC10397247

- assayedSystem: T1, 4H3343-AA
- T1 chain: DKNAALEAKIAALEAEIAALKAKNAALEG
- assayExplanation: two-hybrid library CCmax;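 note: natural log of median RNA to DNA barcode read ratio; higher means stronger binding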
- conditions: mean of both orientations
readoutLabel: interaction score

1 = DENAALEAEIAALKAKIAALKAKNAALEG [4H1135-AA]
2 = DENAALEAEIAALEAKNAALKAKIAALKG [4H1086-AA]
3 = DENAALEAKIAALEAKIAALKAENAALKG [4H1324-AA]
Q) Rank the 3 binders shown above by interaction score, smallest number first. Answer by writing out the labels in the requested order.
A) 2, 1, 3
(2: -1.72, 1: -0.943, 3: 0.278)

a = DKNAALEAEIAALEAKIAALEAKNAALKG [4H3112-AA]
b = DKIAALKAEIAALEAEIAALKAKNAALEG [4H2575-AA]
Q) Could you tell me which of a and b has the lower interaction score reading? Could you answer with the label of the item you picked?
A) a
